Reference source: paper PMC4589238

Entries annotated with measured Tmax (mean ± sd)
- TEST_PROTOCOL: Plasma concentrations of ayahuasca compounds and metabolites after oral ayahuasca (LC/MS/MS)
- Type: in vivo, human
- RUN_CONDITIONS: plasma, 16 volunteers, oral ayahuasca
// note: answer is a bare numeric in min

Sample records with Tmax (mean ± sd):
> print(dat)
                                   compound  recorded.result
1  CC1NCCc2c1[nH]c1cc(O)ccc21 (stereo not shown) [THH-OH, 7‐hydroxy‐tetrahydroharmine]           119.64
2  C[N+](C)([O-])CCc1c[nH]c2ccccc12 [DMT-NO, DMT‐N‐oxide]           110.94
3  COc1ccc2c3c([nH]c2c1)[C@@H](C)NCC3 [THH, tetrahydroharmine]           190.63

The record that follows has no Tmax (mean ± sd) shown yet.
Lab note: measured Tmax (mean ± sd) of O=C(O)Cc1c[nH]c2ccccc12 [IAA, indoleacetic acid] was 175.00

* * *

In this section, each of the molecules is paired with its reported Cmax (mean ± sd).
- TEST_PROTOCOL: Plasma concentrations of ayahuasca compounds and metabolites after oral ayahuasca (LC/MS/MS)
- Type: in vivo, human
- RUN_CONDITIONS: plasma, 16 volunteers, oral ayahuasca, sampling to 200 min
Report field: quantity (unit follows the number).

Example molecules with recorded Cmax (mean ± sd):
> print(dat)
                                   molecule        recorded.result
1  C[N+](C)([O-])CCc1c[nH]c2ccccc12 [DMT-NO, DMT‐N‐oxide]    14.42 ± 12.50 ng/mL
2  COc1ccc2c3c([nH]c2c1)[C@@H](C)NCC3 [THH, tetrahydroharmine]  328.76 ± 324.86 ng/mL
3                   O=C(O)Cc1c[nH]c2ccccc12  717.72 ± 454.50 ng/mL

Okay, next one:
Input CC1NCCc2c1[nH]c1cc(O)ccc21 (stereo not shown) [THH-OH, 7‐hydroxy‐tetrahydroharmine] . Output Cmax (mean ± sd): 22.58 ± 26.76 ng/mL

* * *

- TEST_PROTOCOL: Plasma concentrations of ayahuasca compounds and metabolites after oral ayahuasca (LC/MS/MS)
- Format: in vivo, human
- RUN_CONDITIONS: plasma, 16 volunteers, oral ayahuasca
QUANTITY_KIND: AUC (min—max)

> print(dat)
                                   compound  quantity.kind              recorded.result
1                   O=C(O)Cc1c[nH]c2ccccc12  AUC (min—max)  1237.81 to 7726.25 g·min/mL
2  C[N+](C)([O-])CCc1c[nH]c2ccccc12 [DMT-NO, DMT‐N‐oxide]  AUC (min—max)      5.21 to 191.29 g·min/mL
3  CC1NCCc2c1[nH]c1cc(O)ccc21 (stereo not shown) [THH-OH, 7‐hydroxy‐tetrahydroharmine]  AUC (min—max)      0.00 to 284.32 g·min/mL

Alright, here's another compound for you.
For this compound ( COc1ccc2c3c([nH]c2c1)[C@@H](C)NCC3 [THH, tetrahydroharmine] ), measured AUC (min—max) is 75.01 to 3762.73 g·min/mL
